Tested on: blackgrass (Alopecurus myosuroides)
experiment: Test C pre-/postemergence plant response
Type: in vivo
testConditions: Preemergence, 62 g ai/ha; scale 0 to 100, 0 no effect, 100 complete control
endpointLabel: Plant response rating, Blackgrass

1) CCc1c(C)c(-c2ccc(Cl)cc2)nn1-c1c(O)cnn(C)c1=O ... 75
2) Cc1cc(-c2ccc(Cl)cc2)nn1-c1c(OC(=O)c2ccccc2)cnn(C)c1=O ... 98
3) Cn1ncc(O)c(-c2nn(-c3ccc(Cl)cc3)cc2Cl)c1=O ... 85
4) CCc1cc(-c2ccc(F)cc2)nn1-c1c(O)cnn(C)c1=O ... 75
5) Cc1cn(-c2ccc(Cl)cc2)nc1-c1c(O)cnn(C)c1=O ... 98

====

System: goosegrass (Eleusine indica)
experiment: Test E pre-/postemergence plant response
Format: in vivo
testConditions: 31 g ai/ha, Preemergence, scale 0 to 100
endpointLabel: Plant response rating, Goosegrass

1. Cc1cc(-c2ccc(Cl)cc2)nn1-c1c(OC(=O)C(C)C)cnn(C)c1=O [Compound 34] ... 95
2. COC(=O)Oc1cnn(C)c(=O)c1-n1nc(-c2ccc(Cl)cc2)cc1C [Compound 33] ... 98
3. Cn1ncc(O)c(-c2nn(-c3ccc(Cl)cc3)cc2Br)c1=O [Compound 31] ... 100
4. CCc1cc(-c2ccc(C(F)(F)F)cc2)nn1-c1c(OS(C)(=O)=O)cnn(C)c1=O [Compound 19] ... 90

====

Test system: spring barley (Hordeum vulgare)
experiment: Test C pre-/postemergence plant response
Format: in vivo
testConditions: Preemergence, 16 g ai/ha; scale 0 to 100 (0 no effect, 100 complete control)
endpointLabel: Plant response rating, Barley, Spring

1) CCc1cc(-c2ccc(Cl)cc2)nn1-c1c(OC(=O)OC(C)C)cnn(C)c1=O ... 65
2) C#CCOC(=O)Oc1cnn(C)c(=O)c1-n1nc(-c2ccc(Cl)cc2)cc1C ... 0
3) CCc1cc(-c2ccc(C(F)(F)F)cc2)nn1-c1c(OS(C)(=O)=O)cnn(C)c1=O ... 65
4) CCc1c(C)c(-c2ccc(Cl)cc2)nn1-c1c(O)cnn(C)c1=O ... 0

====

System: canarygrass (Phalaris minor)
experiment: Test A pre-/postemergence plant response
Type: in vivo
testConditions: Postemergence, 125 g ai/ha; 0 to 100 scale, 0 no effect, 100 complete control
Values of Plant response rating, Canarygrass strictly less than 70 map to met, and values of at least 70 map to not met.

1) Cc1cn(-c2ccc(Cl)cn2)nc1-c1c(O)cnn(C)c1=O ... met
2) COc1nn(C)c(=O)c(-n2nc(-c3ccc(Br)cc3)cc2C)c1O ... not met
3) COCc1cc(-c2ccc(Br)cc2)nn1-c1c(O)cnn(C)c1=O ... met
4) Cc1cc(-c2ccc(Cl)cc2)nn1-c1c(OC(=S)N(C)C)cnn(C)c1=O ... not met

====

Property: Plant response rating, Bromegrass, Downy; scope: individual compounds
Test system: downy bromegrass (Bromus tectorum)
experiment: Test C pre-/postemergence plant response
Assay type: in vivo
testConditions: Preemergence, 31 g ai/ha; scale 0 to 100 (0 no effect, 100 complete control)
endpointLabel: Plant response rating, Bromegrass, Downy

1. Cc1cc(-c2ccc(Cl)cc2)nn1-c1c(OC(=O)C(C)C)cnn(C)c1=O ... 10
2. CCc1cc(-c2ccc(Cl)cc2)nn1-c1c(OC(=O)OC(C)C)cnn(C)c1=O ... 50
3. C#CCOC(=O)Oc1cnn(C)c(=O)c1-n1nc(-c2ccc(Cl)cc2)cc1C ... 70
4. Cc1cc(-c2ccc(Cl)cc2)nn1-c1c(OC(=O)OCC(C)C)cnn(C)c1=O ... 40
5. Cc1cc(-c2ccc(Cl)cc2)nn1-c1c(OS(=O)(=O)c2ccccc2[N+](=O)[O-])cnn(C)c1=O ... 0

meta.source: patent US20100267561A1
